Target: HCV polymerase (NS5B) type 1b (Hepatitis C virus genotype 1b, UniProt P26663)
Construct: a region encoding NS5B (J Virol 1991 March, 65(3), 1105-13, 544 amino acids after deletion of 47 amino acids on the C-terminal); 6xHis (C); made in house; host or cells: Escherichia coli
Sequence (P26663 2420-2963): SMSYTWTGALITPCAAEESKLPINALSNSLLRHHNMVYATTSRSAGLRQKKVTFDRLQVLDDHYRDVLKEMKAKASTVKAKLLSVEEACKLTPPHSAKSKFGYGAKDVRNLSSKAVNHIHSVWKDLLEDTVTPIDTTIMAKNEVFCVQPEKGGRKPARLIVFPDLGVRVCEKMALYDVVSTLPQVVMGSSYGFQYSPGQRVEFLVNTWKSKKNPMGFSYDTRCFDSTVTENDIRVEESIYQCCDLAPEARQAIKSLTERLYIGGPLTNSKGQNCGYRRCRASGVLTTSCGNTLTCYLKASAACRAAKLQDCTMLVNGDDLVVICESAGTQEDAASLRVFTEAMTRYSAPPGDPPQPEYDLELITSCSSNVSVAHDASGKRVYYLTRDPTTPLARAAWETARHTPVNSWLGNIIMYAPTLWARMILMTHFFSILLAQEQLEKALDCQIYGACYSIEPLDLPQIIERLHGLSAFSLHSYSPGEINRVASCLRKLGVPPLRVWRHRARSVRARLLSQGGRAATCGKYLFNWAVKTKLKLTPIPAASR
Test: Assay of enzyme (HCV polymerase) inhibitory activity, type 1b enzyme
Type: biochemical, HCV BK strain (type 1b)
Conditions: HCV polymerase inhibitory activity IC50, 1b, type 1b enzyme
pIC50: −log10 of the molar value.
READOUT_LABEL: pIC50

Query: # get_value(readout='pIC50', item= "CCC(F)(F)c1ccc(CNC(=O)[C@H]2CN(C(=O)CNc3ccn(C)n3)CCN2S(=O)(=O)c2ccc(OC(F)(F)F)cc2)cc1" )
Reply: 6.00 to 7.00

Query: # get_value(readout='pIC50', item= "O=C(NCc1ccc(OC(F)(F)F)cc1)[C@H]1CN(c2nn3ccc(=O)nc3s2)CCN1S(=O)(=O)c1ccc(C(F)(F)F)cc1" )
Reply: > 7.00

Query: # get_value(readout='pIC50', item= "O=C(NCc1ccc(OC(F)(F)F)cc1)[C@H]1CN(c2ccc3cnccc3n2)CCN1S(=O)(=O)c1ccc(OC(F)(F)F)cc1" )
Reply: > 7.00

Query: # get_value(readout='pIC50', item= "CCN(C)c1ccc(CNC(=O)[C@H]2CN(c3nc(Cl)c(C(=O)O)s3)CCN2S(=O)(=O)c2ccc(OC(F)(F)F)cc2)cc1" )
Reply: > 7.00

Query: # get_value(readout='pIC50', item= O=C(NCC1CC1c1ccccc1)[C@H]1CN(c2cnc3cncnc3n2)CCN1S(=O)(=O)c1ccc(OC(F)(F)F)cc1 (stereo partly drawn) )
Reply: > 7.00

Query: # get_value(readout='pIC50', item= "CCN(CC)c1nc2nc(Cl)nc(N3CCN(S(=O)(=O)c4ccc(OC(F)(F)F)cc4)[C@@H](C(=O)NCc4ccc(OC(F)(F)F)cc4)C3)c2s1" )
Reply: < 6.00

Reference for the values: patent US8017612B2
